Just for reference, ChEMBL document CHEMBL1156094 is where these values come from.

- test.summary: Cytotoxicity against human HOS cells
- Type: cell-based
observable: CC50

- compound: "CN1CCN(c2cccc3nc(CN(C)[C@H]4CCCc5cccnc54)[nH]c23)CC1"
  result: "> 5 µM"
- compound: "CC(C)N1CCN(c2cccc3nc(CN(C)[C@H]4CCCc5cccnc54)cn23)CC1"
  result: "7.1 µM"
- compound: "CN1CCN(c2cccn3cc(CN(C)[C@H]4CCCc5cccnc54)nc23)CC1"
  result: "> 5 µM"
